Experiment: Pharmacokinetic study in rats
Format: in vivo, SD rats
Settings: male, SD, rat, plasma, iv, 1 mg/kg i.v
Source text: SD rats: male, 180-350 g, purchased from Zhejiang Vital River Laboratory Animal Technology Co., Ltd. Reagents: dimethyl sulfoxide (DMSO), polyethylene glycol 400 (PEG-400), normal saline, acetonitrile, formic acid, propranolol (internal standard) are all commercially available. Instrument: Thermo Fisher Scientific LC-MS (Ultimate 3000 UPLC, TSQ QUANTUMN ULTRA triple quadrupole mass spectrometer). The compound was weighed and dissolved in a DMSO-PEG-400 normal saline (5:60:35, v/v/v) system. […]
Observed property: Cmax (ng/mL)

                                   compound  observed_property  value_reported
0  N[C@@H]1CCCc2cccc(Cn3c(=S)[nH]c(=O)c4[nH]ccc43)c21 (single isomer, unassigned)               Cmax             800
1  N[C@@H]1CCOc2cccc(Cn3c(=S)[nH]c(=O)c4[nH]ccc43)c21 (single isomer, unassigned)               Cmax            1900

----------
Catalogue of AUC(0-t) values
experiment: Pharmacokinetic study in rats; format: in vivo, SD rats; conditions: male, SD, rat, plasma, iv, 1 mg/kg i.v
Observed property: AUC(0-t)

>>> df
                                   molecule  value_reported
0  N[C@@H]1CCOc2cccc(Cn3c(=S)[nH]c(=O)c4[nH]ccc43)c21 (single isomer, unassigned) [Compound 6A]    1270 ng·h/mL
1  NC1CCOc2cccc(Cn3c(=S)[nH]c(=O)c4[nH]ccc43)c21 (stereo not drawn) [Compound 6]     827 ng·h/mL
2  N[C@@H]1CCCc2cccc(Cn3c(=S)[nH]c(=O)c4[nH]ccc43)c21 (single isomer, unassigned) [Compound 7A]     293 ng·h/mL
